Exercise: state measured IC50 for each of the compounds provided.
Unit µM implied. Number only.

Measured on Proto-oncogene tyrosine-protein kinase Src (Homo sapiens, UniProt P12931), `COc1ccc(Nc2nc(N3CCOCC3)nc3[nH]cnc23)cc1` has a documented IC50 of 0.13

Query `NS(=O)(=O)c1ccc(Nc2nc(N3CCN(CCO)CC3)nc3nc[nH]c23)cc1` on Proto-oncogene tyrosine-protein kinase Src (Homo sapiens, UniProt P12931); IC50 returned: 0.26

Response field IC50 (Proto-oncogene tyrosine-protein kinase Src (Homo sapiens, UniProt P12931)) for item `COc1cccc(Nc2nc(N3CCN(CCO)CC3)nc3nc[nH]c23)c1` : 1.2

Result for `Clc1ccc(Nc2nc(N3CCNCC3)nc3[nH]cnc23)cc1` , tested on Proto-oncogene tyrosine-protein kinase Src (Homo sapiens, UniProt P12931), IC50: 1.18

Observed IC50, Proto-oncogene tyrosine-protein kinase Src (Homo sapiens, UniProt P12931), `O=[N+]([O-])c1ccc(Nc2nc(N3CCOCC3)nc3nc[nH]c23)cc1` : 0.39

Considering `Cc1cccc(Nc2nc(N3CCNCC3)nc3nc[nH]c23)c1` , its IC50 with Proto-oncogene tyrosine-protein kinase Src (Homo sapiens, UniProt P12931) was recorded as 2.42
